test protocol: Toxicity against brine shrimp
Type: organism-based
details: artemia, in vivo
experimental endpoint: LC50 (µg/mL)
Provide the reading as a plain figure in µg/mL.

Given the entry C=C1C[C@@]23CC[C@H]4[C@@](C)(CCC[C@@]4(C)C(=O)O)[C@@H]2CC[C@@H]1C3 , report its measured LC50.
16

---

What EC50 was measured for each of the following?
Tested on: PC-3
test protocol: Cytotoxicity against human PC3 cells after 7 days by MTT assay
Format: functional
details: PC-3, 168 h, read-out: ED50 (the source's name)
A number alone suffices; assume µg/mL.

Which value of EC50 has been reported for COC(=O)[C@]1(C)CCC[C@@]2(C)[C@H]3CC[C@@H]4C[C@@]3(CC[C@@H]21)C[C@@H]4C(=O)O in the records?
17.4

Sample CC(=O)OC[C@@]1(OC(C)=O)C[C@@]23CC[C@H]4[C@@](C)(CCC[C@@]4(C)C(=O)O)[C@H]2CC[C@@H]1C3 — what was its EC50?
17.7

Suppose we examine the compound C=C1C[C@@]23CC[C@H]4[C@@](C)(CCC[C@@]4(C)C(=O)O)[C@@H]2CC[C@@H]1C3 ; what EC50 value has been reported?
15.2

Give the measured EC50 of COc1cccc2c1C(=O)c1c(O)c3c(c(O)c1C2=O)C[C@@](O)(C(=O)CO)C[C@@H]3O[C@H]1C[C@H](N)[C@H](O)[C@H](C)O1 .
0.0223

---

System: MCF7
test protocol: Cytotoxicity against human MCF7 cells after 7 days by MTT assay
Assay type: functional
details: MCF7, 168 h, read-out: ED50 (the source's name)
Kindly supply the reported EC50 values for the records listed here.
Respond numerically; units are µg/mL and should not be typed.

For the molecule C=C1C[C@@]23CC[C@H]4[C@@](C)(CCC[C@@]4(C)C(=O)O)[C@@H]2CC[C@@H]1C3 , what EC50 is on record?
1

Bench note: what EC50 did COc1cccc2c1C(=O)c1c(O)c3c(c(O)c1C2=O)C[C@@](O)(C(=O)CO)C[C@@H]3O[C@H]1C[C@H](N)[C@H](O)[C@H](C)O1 show?
0.152

Taken from ChEMBL document CHEMBL1158224.
